target: Testis-specific serine/threonine-protein kinase 1 (Homo sapiens)
Sequence (whole entry): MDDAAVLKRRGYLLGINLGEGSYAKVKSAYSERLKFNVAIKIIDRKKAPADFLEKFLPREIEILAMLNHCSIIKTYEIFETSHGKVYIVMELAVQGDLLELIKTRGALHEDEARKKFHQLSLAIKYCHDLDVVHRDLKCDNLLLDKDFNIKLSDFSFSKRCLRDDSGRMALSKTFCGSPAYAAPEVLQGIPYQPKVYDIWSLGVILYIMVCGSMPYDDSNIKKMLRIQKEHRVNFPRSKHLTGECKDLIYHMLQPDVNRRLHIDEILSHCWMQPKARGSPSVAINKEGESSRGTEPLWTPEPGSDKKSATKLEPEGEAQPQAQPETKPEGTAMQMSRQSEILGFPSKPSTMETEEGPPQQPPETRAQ
applied_conditions: at 1 µM
endpoint: inhibition (%)
Express the result in % but write the number alone.

See these solved cases before continuing.
>  <smiles_record>
COc1cc(C)c(NC(=O)CN(C)C)cc1Nc1nc(Nc2cccc(F)c2C(N)=O)c2cc[nH]c2n1

>  <target>
Testis-specific serine/threonine-protein kinase 1 (Homo sapiens)

>  <endpoint>
inhibition

>  <recorded_measurement>
89.3

$$$$
>  <smiles_record>
CS(=O)(=O)CCNCc1nc(-c2ccc3ncnc(Nc4ccc(F)c(Cl)c4)c3c2)cs1

>  <target>
Testis-specific serine/threonine-protein kinase 1 (Homo sapiens)

>  <endpoint>
inhibition

>  <recorded_measurement>
0.45

$$$$
>  <smiles_record>
COc1cc(C=NNc2ncnc3c2cnn3-c2ccccc2)ccc1O

>  <target>
Testis-specific serine/threonine-protein kinase 1 (Homo sapiens)

>  <endpoint>
inhibition

>  <recorded_measurement>
1.92

$$$$
>  <smiles_record>
CCn1c(-c2nonc2N)nc2c(N3CCCC3)nccc21

>  <target>
Testis-specific serine/threonine-protein kinase 1 (Homo sapiens);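 also: reported value is the mean inhibition, from the GSK PKIS kinase screening panel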

>  <endpoint>
inhibition

>  <recorded_measurement>
-0.07

$$$$

Okay, next one:
query: For `[O-][S+]1CCN(Cc2ccc(-c3ccc4ncnc(Nc5ccc(OCc6ccccc6)c(F)c5)c4c3)o2)CC1` , what is its reported inhibition?
result: 0.49

---

Tested on: Leucine-rich repeat serine/threonine-protein kinase 2 (Homo sapiens), Q5S007 [G2019S]
Sequence (Q5S007 whole entry G2019S): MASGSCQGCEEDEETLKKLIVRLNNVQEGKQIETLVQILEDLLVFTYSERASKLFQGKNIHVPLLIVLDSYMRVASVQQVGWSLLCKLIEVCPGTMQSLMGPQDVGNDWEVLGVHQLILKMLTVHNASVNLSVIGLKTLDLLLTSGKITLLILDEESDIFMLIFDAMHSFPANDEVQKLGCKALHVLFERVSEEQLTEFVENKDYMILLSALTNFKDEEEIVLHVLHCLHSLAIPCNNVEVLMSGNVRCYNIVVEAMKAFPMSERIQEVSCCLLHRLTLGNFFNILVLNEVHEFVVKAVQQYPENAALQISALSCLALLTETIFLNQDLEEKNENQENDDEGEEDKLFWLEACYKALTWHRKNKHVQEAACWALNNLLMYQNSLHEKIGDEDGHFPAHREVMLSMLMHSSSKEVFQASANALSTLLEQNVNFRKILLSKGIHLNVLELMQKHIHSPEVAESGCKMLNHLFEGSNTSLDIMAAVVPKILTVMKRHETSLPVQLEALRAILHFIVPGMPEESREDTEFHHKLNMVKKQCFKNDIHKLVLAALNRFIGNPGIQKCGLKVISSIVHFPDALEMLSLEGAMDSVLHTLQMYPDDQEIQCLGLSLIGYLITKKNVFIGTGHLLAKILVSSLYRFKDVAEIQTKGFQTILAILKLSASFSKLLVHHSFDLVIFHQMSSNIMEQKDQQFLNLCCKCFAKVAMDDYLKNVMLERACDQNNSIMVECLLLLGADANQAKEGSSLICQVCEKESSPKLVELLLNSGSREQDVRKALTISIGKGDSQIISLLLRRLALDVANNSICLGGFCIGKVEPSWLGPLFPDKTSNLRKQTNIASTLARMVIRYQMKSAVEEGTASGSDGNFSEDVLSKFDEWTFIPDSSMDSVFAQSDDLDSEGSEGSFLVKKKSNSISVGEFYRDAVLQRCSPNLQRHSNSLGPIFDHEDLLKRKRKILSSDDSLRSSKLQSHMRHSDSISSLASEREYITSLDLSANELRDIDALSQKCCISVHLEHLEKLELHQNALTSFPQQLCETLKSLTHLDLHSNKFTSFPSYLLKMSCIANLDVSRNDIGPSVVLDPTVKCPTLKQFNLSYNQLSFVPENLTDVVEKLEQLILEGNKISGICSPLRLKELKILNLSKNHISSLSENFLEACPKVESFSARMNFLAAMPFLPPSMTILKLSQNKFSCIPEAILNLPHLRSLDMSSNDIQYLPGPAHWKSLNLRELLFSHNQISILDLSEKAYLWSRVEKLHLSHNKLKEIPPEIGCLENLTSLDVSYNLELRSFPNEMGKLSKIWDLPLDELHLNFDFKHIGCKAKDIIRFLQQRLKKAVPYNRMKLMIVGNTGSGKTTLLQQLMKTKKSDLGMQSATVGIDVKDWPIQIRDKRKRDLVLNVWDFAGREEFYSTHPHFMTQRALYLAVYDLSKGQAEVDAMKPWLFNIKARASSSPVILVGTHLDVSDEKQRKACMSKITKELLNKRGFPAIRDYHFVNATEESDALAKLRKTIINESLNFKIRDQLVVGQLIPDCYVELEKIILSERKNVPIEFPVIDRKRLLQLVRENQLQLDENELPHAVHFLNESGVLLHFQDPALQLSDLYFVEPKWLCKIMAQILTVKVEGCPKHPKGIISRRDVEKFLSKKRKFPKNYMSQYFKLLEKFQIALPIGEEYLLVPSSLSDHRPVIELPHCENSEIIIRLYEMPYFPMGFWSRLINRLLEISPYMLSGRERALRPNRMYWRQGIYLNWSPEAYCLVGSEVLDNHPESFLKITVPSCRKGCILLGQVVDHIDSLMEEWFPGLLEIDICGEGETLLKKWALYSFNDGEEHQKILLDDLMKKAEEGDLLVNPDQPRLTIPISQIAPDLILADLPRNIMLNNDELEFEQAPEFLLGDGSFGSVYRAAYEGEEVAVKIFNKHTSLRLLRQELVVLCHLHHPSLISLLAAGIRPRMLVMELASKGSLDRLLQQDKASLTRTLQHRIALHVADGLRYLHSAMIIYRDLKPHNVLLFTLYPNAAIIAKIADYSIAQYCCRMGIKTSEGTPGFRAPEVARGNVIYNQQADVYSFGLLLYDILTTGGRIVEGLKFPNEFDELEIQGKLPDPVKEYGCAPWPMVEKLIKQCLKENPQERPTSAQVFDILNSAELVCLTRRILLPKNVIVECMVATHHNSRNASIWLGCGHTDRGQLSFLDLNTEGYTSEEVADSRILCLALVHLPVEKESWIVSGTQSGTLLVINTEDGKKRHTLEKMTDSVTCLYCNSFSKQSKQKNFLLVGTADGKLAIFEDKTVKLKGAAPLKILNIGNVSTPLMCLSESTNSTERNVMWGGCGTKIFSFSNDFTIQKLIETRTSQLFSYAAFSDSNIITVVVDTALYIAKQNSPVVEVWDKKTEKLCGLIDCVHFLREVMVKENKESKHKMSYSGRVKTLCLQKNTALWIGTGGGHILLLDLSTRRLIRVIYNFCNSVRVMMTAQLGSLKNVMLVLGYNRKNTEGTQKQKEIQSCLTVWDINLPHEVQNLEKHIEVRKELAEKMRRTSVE
applied_conditions: at 0.1 µM
# reported inhibition; entries follow
Express the result in % but write the number alone.

See these solved cases before continuing.
>  <smiles_record>
CS(=O)(=O)CCN(CC#N)Cc1ccc(-c2ccc3ncnc(Nc4ccc(OCc5cccc(F)c5)c(Cl)c4)c3c2)o1

>  <inhibition (%)>
-3.2

$$$$
>  <smiles_record>
CCn1c(-c2nonc2N)nc2c(C#CC(C)(C)O)nc(OC[C@@H](N)c3ccccc3)cc21

>  <inhibition (%)>
2.34

$$$$
>  <smiles_record>
COc1cc(C)c(NC(=O)CN(C)C)cc1Nc1nc(Nc2cccc(F)c2C(N)=O)c2cc[nH]c2n1

>  <inhibition (%)>
83.5

$$$$

Okay, next one:
query: Lab request: please report inhibition under test system Leucine-rich repeat serine/threonine-protein kinase 2 (Homo sapiens), Q5S007 [G2019S] for `Cn1cc(C=C2C(=O)Nc3cccnc32)c2ccccc21`
result: 15

---

System: Tyrosine-protein kinase ABL1 (Homo sapiens), P00519 [Q252H]
applied_conditions: at 1 µM
# reported inhibition; entries follow
Express the result in % but write the number alone.

See these solved cases before continuing.
>  <smiles_record>
COc1ccc(-c2nn3ncccc3c2-c2ccnc(Nc3ccc(Cl)c(C(F)(F)F)c3)n2)cc1

>  <recorded_measurement>
18.9

$$$$
>  <smiles_record>
Cc1cccc(-c2n[nH]cc2-c2ccc3ncccc3n2)n1

>  <recorded_measurement>
29.6

$$$$
>  <smiles_record>
Nc1nc(-c2ccc3c(c2)C(=Cc2cc(Br)c(O)c(Br)c2)C(=O)N3)cs1

>  <recorded_measurement>
6.93

$$$$
>  <smiles_record>
COc1cccc(-n2ncc3c(N/N=C/c4cccc(F)c4)ncnc32)c1

>  <recorded_measurement>
90.3

$$$$
>  <smiles_record>
CCc1cccc(NC(=O)Nc2ccc(Oc3ccc4nc(NC(=O)OC)[nH]c4c3)cc2)c1

>  <recorded_measurement>
60.8

$$$$
>  <smiles_record>
COc1cc2c(cc1Nc1nc(N3CCc4ccccc43)c3cc[nH]c3n1)N(C(=O)CN(C)C)CC2

>  <recorded_measurement>
2.24

$$$$

query: For `CCN1CCC(CC(=O)Nc2n[nH]c3nc(-c4cccs4)c(Br)cc23)CC1` , what is its reported inhibition?
result: 11.6

query: For `COc1cc2ncn(-c3cc(O[C@H](C)c4ccccc4Cl)c(C(N)=O)s3)c2cc1OC` , what is its reported inhibition?
result: 43.2

query: For `O=C(Nc1n[nH]c2nc(-c3ccco3)c(Br)cc12)C1CC1` , what is its reported inhibition?
result: 32.3

---

target: Protein-tyrosine kinase 2-beta (Homo sapiens);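 also: values are the mean percent inhibition of PYK2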
applied_conditions: at 1 µM
endpoint: inhibition (%)
Express the result in % but write the number alone.

query: For `COC(=O)Nc1nc2cc(Oc3cccc(NC(=O)Nc4cc(C(F)(F)F)ccc4F)c3)ccc2[nH]1` , what is its reported inhibition?
result: -4.43

query: For `O=C1NC(=O)C(N2CCc3ccccc32)=C1c1ccc(Cl)cc1` , what is its reported inhibition?
result: 7.03

query: For CC1=C(C(=O)Nc2ccc3[nH]ncc3c2)C(c2ccc(F)cc2)NC(=O)N1 (configuration not stated) , what is its reported inhibition?
result: 8.37

---

target: Ephrin type-A receptor 4 (Homo sapiens) (UniProt P54764)
Sequence (P54764 whole entry): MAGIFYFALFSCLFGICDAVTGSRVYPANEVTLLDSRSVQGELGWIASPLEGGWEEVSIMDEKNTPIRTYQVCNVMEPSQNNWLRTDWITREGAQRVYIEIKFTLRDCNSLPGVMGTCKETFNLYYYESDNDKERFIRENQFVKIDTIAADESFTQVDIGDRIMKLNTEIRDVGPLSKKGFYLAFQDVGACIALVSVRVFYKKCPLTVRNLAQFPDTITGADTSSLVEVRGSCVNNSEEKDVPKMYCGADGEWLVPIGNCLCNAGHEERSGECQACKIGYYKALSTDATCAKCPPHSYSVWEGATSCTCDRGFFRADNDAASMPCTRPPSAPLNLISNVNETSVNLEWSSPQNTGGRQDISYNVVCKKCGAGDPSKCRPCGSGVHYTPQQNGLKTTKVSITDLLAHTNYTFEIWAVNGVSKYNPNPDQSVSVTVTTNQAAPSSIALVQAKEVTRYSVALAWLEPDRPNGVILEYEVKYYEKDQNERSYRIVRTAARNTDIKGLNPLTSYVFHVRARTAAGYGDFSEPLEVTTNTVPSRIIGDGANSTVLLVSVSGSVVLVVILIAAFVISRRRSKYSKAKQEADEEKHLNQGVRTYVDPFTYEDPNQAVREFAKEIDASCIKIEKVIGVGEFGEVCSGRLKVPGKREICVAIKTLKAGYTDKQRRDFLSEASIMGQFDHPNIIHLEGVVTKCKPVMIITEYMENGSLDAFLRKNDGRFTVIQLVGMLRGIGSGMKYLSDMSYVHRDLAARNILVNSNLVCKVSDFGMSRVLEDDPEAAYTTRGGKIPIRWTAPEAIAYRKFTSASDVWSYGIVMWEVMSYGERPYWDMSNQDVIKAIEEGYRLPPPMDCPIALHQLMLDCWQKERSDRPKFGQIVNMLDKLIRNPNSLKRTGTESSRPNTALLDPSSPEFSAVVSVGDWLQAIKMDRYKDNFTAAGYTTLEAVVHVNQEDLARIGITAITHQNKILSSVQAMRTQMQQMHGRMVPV
applied_conditions: at 1 µM
Description: GSK_PKIS: EPHA4 mean inhibition at 1 uM [Nanosyn]
endpoint: inhibition (%)
Express the result in % but write the number alone.

See these solved cases before continuing.
>  <compound>
CC(=O)Nc1cccc(C#Cc2cncnc2Nc2ccc(OCc3cccc(F)c3)c(Cl)c2)n1

>  <target>
Ephrin type-A receptor 4 (Homo sapiens) (UniProt P54764)

>  <measurement_units>
%

>  <inhibition>
5.16

$$$$
>  <compound>
CN1CCC(C(=O)Nc2n[nH]c3nnc(-c4ccccc4)cc23)CC1

>  <target>
Ephrin type-A receptor 4 (Homo sapiens) (UniProt P54764)

>  <measurement_units>
%

>  <inhibition>
8.45

$$$$

query: For `COc1cc(C)c(NC(=O)CN(C)C)cc1Nc1nc(Nc2cccc(F)c2C(N)=O)c2cc[nH]c2n1` , what is its reported inhibition?
result: -1.05

query: For `COC(=O)Nc1nc2cc(Oc3cccc(NC(=O)Nc4cc(C(F)(F)F)ccc4F)c3)ccc2[nH]1` , what is its reported inhibition?
result: 14.2

query: For `COc1cc2ncn(-c3cc(OCc4ccccc4Cl)c(C(N)=O)s3)c2cc1OC` , what is its reported inhibition?
result: 7.32

query: For `CS(=O)(=O)CCNCc1ccc(-c2ccc3ncnc(Nc4ccc(OCc5ccccc5)c(Cl)c4)c3c2)o1` , what is its reported inhibition?
result: 9.95

query: For `CCCN1CCC(Oc2cc(Nc3nc(Nc4cccc(F)c4C(N)=O)c4cc[nH]c4n3)c(OC)cc2Cl)CC1` , what is its reported inhibition?
result: 9.42

query: For COc1ccc2cc(-c3c(-c4ccncc4)nc(-c4ccc([S+](C)[O-])cc4)n3C)ccc2c1 (stereo not drawn) , what is its reported inhibition?
result: 8.03

query: For `CCn1c(-c2nonc2N)nc2c(N3CCCC3)nccc21` , what is its reported inhibition?
result: -8.11

query: For `[O-][S+]1CCN(Cc2ccc(-c3ccc4ncnc(Nc5ccc(OCc6ccccc6)c(F)c5)c4c3)o2)CC1` , what is its reported inhibition?
result: -1.51

query: For CC1=C(C(=O)Nc2ccc3[nH]ncc3c2)C(c2ccc3ccccc3c2)CC(=O)N1 (stereo not drawn) , what is its reported inhibition?
result: 10.2

query: For `Nc1nc(-c2ccc3c(c2)C(=Cc2cc(Br)c(O)c(Br)c2)C(=O)N3)cs1` , what is its reported inhibition?
result: -2.56

query: For `CN(C)c1cc2c(Nc3ccc4nc(Cc5ccccc5)[nH]c4c3)ncnc2cn1` , what is its reported inhibition?
result: 15.2

---

target: Cyclin-dependent kinase 2 (Homo sapiens) (UniProt P24941)
applied_conditions: at 1 µM
endpoint: inhibition (%)
Express the result in % but write the number alone.

See these solved cases before continuing.
>  <compound>
N#Cc1c(NC(=O)c2cccc3ccccc23)sc2c1CCCC2

>  <measurement_units>
%

>  <recorded_measurement>
0.97

$$$$
>  <compound>
COc1ccc2cc(-c3c(-c4ccncc4)nc(-c4ccc([S+](C)[O-])cc4)n3C)ccc2c1 (centres undefined)

>  <measurement_units>
%

>  <recorded_measurement>
1.86

$$$$
>  <compound>
CCN1CCC(CC(=O)Nc2n[nH]c3nc(-c4cccs4)c(Br)cc23)CC1

>  <measurement_units>
%

>  <recorded_measurement>
6.41

$$$$

query: Lab request: please report inhibition under test system Cyclin-dependent kinase 2 (Homo sapiens) (UniProt P24941) for `Nc1nc(-c2ccccn2)c(-c2ccc3ncccc3n2)s1`
result: 1.29

query: Lab request: please report inhibition under test system Cyclin-dependent kinase 2 (Homo sapiens) (UniProt P24941) for `COc1ccc(-c2coc3ncnc(N)c23)cc1`;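 also: mean inhibition of the CDK2–cyclin A kinase complex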
result: 0.12
